test: AUC (0 to tlast) in Sprague-Dawley rat at 3 mg/kg, iv by HPLC/MS/MS analysis; type: ADME, organism-based; set-up: dose 3 mg/kg, route intravenous; conditions: plasma
MEASURE: AUC(0-t) (ng·h/mL)
Give the number; ng·h/mL is assumed, so skip it.

[Q] # query: AUC(0-t) of entry CC(C)N(Cc1ccccc1)C(=O)CN1C(=O)[C@@H](Cc2c[nH]c3ccccc23)c2nnc(-c3ccccc3)n2-c2ccccc21
[A] 1190

---

Reported pIC50 values are given for each entry in this list.
molecular target: Cholecystokinin receptor type A (Rattus norvegicus, UniProt P30551); assay: Displacement of [125I]CCK8 from rat CCK1 receptor expressed in CHO cells
Sequence (P30551 whole entry): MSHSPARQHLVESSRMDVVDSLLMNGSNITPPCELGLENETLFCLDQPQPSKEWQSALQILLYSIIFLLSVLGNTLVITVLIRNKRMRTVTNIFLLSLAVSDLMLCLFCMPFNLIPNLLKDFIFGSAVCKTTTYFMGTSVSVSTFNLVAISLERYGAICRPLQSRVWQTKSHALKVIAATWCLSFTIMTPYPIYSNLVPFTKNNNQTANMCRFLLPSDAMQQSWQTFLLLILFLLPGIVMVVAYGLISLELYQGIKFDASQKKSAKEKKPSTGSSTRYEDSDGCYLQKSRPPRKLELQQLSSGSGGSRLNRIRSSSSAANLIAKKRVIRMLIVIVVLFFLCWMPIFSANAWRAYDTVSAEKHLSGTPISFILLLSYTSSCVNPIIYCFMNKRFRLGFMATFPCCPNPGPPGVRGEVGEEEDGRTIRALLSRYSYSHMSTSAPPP
Scale explanation: pIC50 corresponds to minus log10 of a concentration expressed in moles per litre.

INSERT INTO measurements (molecule, numeric_result) VALUES
  ('CC(C)N(C(=O)CN1C(=O)[C@H](NC(=O)Nc2cccc(C(=O)O)c2)C(=O)N(c2ccccc2)c2ccccc21)c1ccccc1', 7.28);

[Q] # query: pIC50 of entry CC(C)N(Cc1ccccc1)C(=O)CN1C(=O)C(Cc2n[nH]c3ccccc23)c2nnc(-c3ccccc3)n2-c2ccccc21 (configuration not stated)
[A] 7.68
